Molecular target: BRAF G466V (Homo sapiens, UniProt P15056, G466V)
Construct: expressed in transfected cells
Sequence (P15056 whole entry G466V): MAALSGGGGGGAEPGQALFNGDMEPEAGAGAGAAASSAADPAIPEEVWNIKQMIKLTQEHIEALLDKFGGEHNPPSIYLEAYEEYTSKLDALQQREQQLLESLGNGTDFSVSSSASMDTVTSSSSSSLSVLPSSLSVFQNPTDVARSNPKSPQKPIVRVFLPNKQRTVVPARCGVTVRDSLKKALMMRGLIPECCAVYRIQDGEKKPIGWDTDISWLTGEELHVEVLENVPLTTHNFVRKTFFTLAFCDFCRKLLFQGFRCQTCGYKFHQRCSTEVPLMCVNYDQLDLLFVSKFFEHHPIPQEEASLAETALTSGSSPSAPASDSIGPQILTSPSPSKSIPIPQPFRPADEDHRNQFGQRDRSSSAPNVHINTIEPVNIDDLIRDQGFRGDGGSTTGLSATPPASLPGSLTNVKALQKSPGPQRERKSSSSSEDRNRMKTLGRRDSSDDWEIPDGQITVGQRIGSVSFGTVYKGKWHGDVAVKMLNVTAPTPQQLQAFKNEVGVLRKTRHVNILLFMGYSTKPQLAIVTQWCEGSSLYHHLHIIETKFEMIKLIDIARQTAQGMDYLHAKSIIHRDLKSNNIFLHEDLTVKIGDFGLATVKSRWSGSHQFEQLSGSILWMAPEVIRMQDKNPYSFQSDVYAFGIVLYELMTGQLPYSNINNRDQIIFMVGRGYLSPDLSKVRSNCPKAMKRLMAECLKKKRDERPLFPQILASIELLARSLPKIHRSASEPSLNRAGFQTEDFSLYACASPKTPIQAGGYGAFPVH
Experiment: Cellular assay of target protein degradation, T-Rex 293 cells stably transfected with HA-BRAF G466V (HA immunofluorescence, high content imaging)
Assay type: cell-based
Settings: maximum degradation observed, T-Rex 293 HA-BRAF G466V
Please provide measured Dmax for the entries that follow.

Req: Quick one: Dmax of O=C1CCC(N2Cc3cc(CCOCCN4CCC(c5ccc(-c6cnc7[nH]cc(C(=O)c8c(F)ccc(NS(=O)(=O)N9CC[C@@H](F)C9)c8F)c7c6)cc5)CC4)ccc3C2=O)C(=O)N1 (stereo partly drawn) [Compound 151] ?
Resp: > 70%

Req: Okay, and COc1ccc(NS(=O)(=O)N2CC[C@@H](F)C2)c(F)c1C(=O)c1c[nH]c2ncc(-c3ccc(N4CCC(CN5CCC(c6ccc7c(c6)CN(C6CCC(=O)NC6=O)C7=O)CC5)CC4)cc3)cc12 (stereo partly drawn) [Compound 269] ?
Resp: 35 to 70%

Req: Okay, and O=C1CCC(N2Cc3cc(N4CC5(CN(CCOc6ncc(-c7cnc8[nH]cc(C(=O)c9c(F)ccc(NS(=O)(=O)N%10CC[C@@H](F)C%10)c9F)c8c7)cn6)C5)C4)ccc3C2=O)C(=O)N1 (stereo partly drawn) [Compound 117] ?
Resp: > 70%

---

Target: BRAF G466V (Homo sapiens, UniProt P15056, G466V)
Construct: expressed in transfected cells
Assay: Cellular assay of target protein degradation, T-Rex 293 cells stably transfected with HA-BRAF G466V (HA immunofluorescence, high content imaging)
Type: cell-based
Details: half maximal degradation, T-Rex 293 HA-BRAF G466V; read-out: BRaf G466V DC50
Please provide measured DC50 for the entries that follow.

Req: Quick one: DC50 of COc1cc(C2CCN(CC3CCN(c4ccc(-c5cnc6[nH]cc(C(=O)c7c(F)ccc(NS(=O)(=O)N8CC[C@@H](F)C8)c7F)c6c5)cc4F)CC3)CC2)cc2c1C(=O)N(C1CCC(=O)NC1=O)C2 (some centres unmarked) ?
Resp: 1 to 10 nM

Req: Okay, and O=C1CCC(N2Cc3cc(N4CCC(CN5CC(C6CN(c7ccc(-c8cnc9[nH]cc(C(=O)c%10c(F)ccc(NS(=O)(=O)N%11CC[C@@H](F)C%11)c%10F)c9c8)cc7)C6)C5)CC4)ccc3C2=O)C(=O)N1 (some centres unmarked) ?
Resp: 1 to 10 nM

---

Target: BRAF V600E (Homo sapiens, UniProt P15056, V600E)
Construct: expressed in transfected cells
Sequence (P15056 whole entry V600E): as the sequence (P15056 whole entry G466V) above, with V466G, V600E counted along it
Test: Cellular assay of target protein degradation, T-Rex 293 cells stably transfected with HA-BRAF_V600E (HA immunofluorescence, high content imaging)
Assay type: cell-based
Conditions: maximum degradation observed, T-Rex 293 HA-BRAF V600E
assay.readout: Dmax

Req: Quick one: Dmax of O=C1CC[C@@H](N2Cc3cc([C@@H](O)CCN4CCC(c5ccc(-c6cnc7[nH]cc(C(=O)c8c(F)ccc(NS(=O)(=O)N9CC[C@@H](F)C9)c8F)c7c6)cc5)CC4)ccc3C2=O)C(=O)N1 ?
Resp: < 35%

Req: Okay, and O=C1CCC(N2Cc3cc(N4CC5(CCN(CC#Cc6ccc(-c7cnc8[nH]cc(C(=O)c9c(F)ccc(NS(=O)(=O)N%10CC[C@@H](F)C%10)c9F)c8c7)cc6)C5)C4)ccc3C2=O)C(=O)N1 (some centres unmarked) ?
Resp: < 35%

Req: Okay, and CN(C1CC1)S(=O)(=O)Nc1ccc(F)c(C(=O)c2c[nH]c3ncc(-c4ccc(N5CCC(CN6CCC(c7ccc8c(c7)CN([C@H]7CCC(=O)NC7=O)C8=O)CC6)CC5)cc4)cc23)c1F ?
Resp: 35 to 70%

Req: Okay, and O=C1CC[C@H](NC(=O)c2ccc(N3CC4(CN(CC5CCN(c6ccc(-c7cnc8[nH]cc(C(=O)c9c(F)ccc(NS(=O)(=O)N%10CCC(F)(F)C%10)c9F)c8c7)cc6)CC5)C4)C3)cc2F)C(=O)N1 ?
Resp: 35 to 70%

Req: Okay, and COc1cc([C@H](O)CCN2CCN(c3ccc(-c4cnc5[nH]cc(C(=O)c6c(F)ccc(NS(=O)(=O)N7CC[C@@H](F)C7)c6F)c5c4)cc3)CC2)cc2c1C(=O)N([C@@H]1CCC(=O)NC1=O)C2 ?
Resp: 35 to 70%

Req: Okay, and O=C1CC[C@H](N2Cc3cc(C4CCN(CC5CCN(c6ccc(-c7cnc8[nH]cc(C(=O)c9c(F)ccc(NS(=O)(=O)N%10CCCC%10)c9F)c8c7)cc6)CC5)CC4)ccc3C2=O)C(=O)N1 ?
Resp: 35 to 70%

Req: Okay, and O=C1CCC(N2Cc3cc(N4CCC(CN5CCC6(CCN(c7ncc(-c8cnc9[nH]cc(C(=O)c%10c(F)ccc(NS(=O)(=O)N%11CC[C@@H](F)C%11)c%10F)c9c8)cn7)CC6)C5)CC4)ccc3C2=O)C(=O)N1 (some centres unmarked) ?
Resp: < 35%

Req: Okay, and N#Cc1cc(-c2cnc3[nH]cc(C(=O)c4c(F)ccc(NS(=O)(=O)N5CC[C@@H](F)C5)c4F)c3c2)ccc1N1CCC(CN2CCC(c3ccc4c(c3)CN([C@H]3CCC(=O)NC3=O)C4=O)CC2)CC1 ?
Resp: 35 to 70%

Req: Okay, and O=C1CC[C@@H](NC(=O)c2ccc(N3CCN(CC4CCN(c5ccc(-c6cnc7[nH]cc(C(=O)c8c(F)ccc(NS(=O)(=O)N9CC[C@@H](F)C9)c8F)c7c6)cc5)CC4)CC3)cc2F)C(=O)N1 ?
Resp: < 35%

Req: Okay, and O=C1CCC(N2Cc3cc(C4CCN(CCc5ccc(-c6cnc7[nH]cc(C(=O)c8c(F)ccc(NS(=O)(=O)N9CC[C@@H](F)C9)c8F)c7c6)cc5)[C@@H](CO)C4)ccc3C2=O)C(=O)N1 (some centres unmarked) ?
Resp: 35 to 70%

Req: Okay, and COc1cc(N2CCN(CC3CCN(c4ccc(-c5cnc6[nH]cc(C(=O)c7c(F)ccc(NS(=O)(=O)N8CC[C@@H](F)C8)c7F)c6c5)cc4)CC3)CC2)ccc1C(=O)N[C@H]1CCC(=O)NC1=O ?
Resp: 35 to 70%

Req: Okay, and O=C1CC[C@H](N2Cc3cc(/C=C/CN4CC5(C4)CN(c4ccc(-c6cnc7[nH]cc(C(=O)c8c(F)ccc(NS(=O)(=O)N9CC[C@@H](F)C9)c8F)c7c6)cc4)C5)ccc3C2=O)C(=O)N1 ?
Resp: 35 to 70%

Req: Okay, and O=C1CC[C@H](N2Cc3cc(N4CC(CN5C[C@@H]6CN(c7ccc(-c8cnc9[nH]cc(C(=O)c%10c(F)ccc(NS(=O)(=O)N%11CC[C@@H](F)C%11)c%10F)c9c8)cc7)C[C@@H]6C5)C4)ccc3C2=O)C(=O)N1 ?
Resp: 35 to 70%

Req: Okay, and O=C1CCC(N2Cc3cc(OCCCCN4CCN(c5ncc(-c6cnc7[nH]cc(C(=O)c8c(F)ccc(NS(=O)(=O)N9CC[C@@H](F)C9)c8F)c7c6)cn5)CC4)ccc3C2=O)C(=O)N1 (some centres unmarked) ?
Resp: 35 to 70%

---

Target: BRAF G466V (Homo sapiens, UniProt P15056, G466V)
Construct: expressed in transfected cells
Assay: Cellular assay of target protein degradation, T-Rex 293 cells stably transfected with HA-BRAF G466V (HA immunofluorescence, high content imaging)
Assay type: cell-based
Details: half maximal degradation, T-Rex 293 HA-BRAF G466V; read-out: BRaf G466V DC50
Please provide measured DC50 for the entries that follow.

Req: Quick one: DC50 of COc1cc(OCCN2CCN(CCOc3ccc(-c4cnc5[nH]cc(C(=O)c6c(F)ccc(NS(=O)(=O)N7CC[C@@H](F)C7)c6F)c5c4)cc3)CC2)cc2c1C(=O)N([C@@H]1CCC(=O)NC1=O)C2 [Compound 45] ?
Resp: < 1 nM

Req: Okay, and O=C1CCC(N2Cc3cc(N4CC(N5C[C@H]6C[C@@H]5CN6c5ccc(-c6cnc7[nH]cc(C(=O)c8c(F)ccc(NS(=O)(=O)N9CC[C@@H](F)C9)c8F)c7c6)cc5)C4)ccc3C2=O)C(=O)N1 (some centres unmarked) [Compound 5] ?
Resp: 1 to 10 nM

Req: Okay, and COc1cc(N2CC(CN3CCN(c4ccc(-c5cnc6[nH]cc(C(=O)c7c(F)ccc(NS(=O)(=O)N8CC[C@@H](F)C8)c7F)c6c5)cc4)CC3)C2)cc2c1C(=O)N(C1CCC(=O)NC1=O)C2 (some centres unmarked) [Compound 70] ?
Resp: < 1 nM

Req: Okay, and O=C1CC[C@@H](N2Cc3cc(N4CCC(CN5CCC6(CCN(c7ccc(-c8cnc9[nH]cc(C(=O)c%10c(F)ccc(NS(=O)(=O)N%11CC[C@@H](F)C%11)c%10F)c9c8)cc7F)CC6)C5)CC4)ccc3C2=O)C(=O)N1 [Compound 259] ?
Resp: < 1 nM

Req: Okay, and O=C1CCC(N2Cc3cc(N4CC(CN5CCN(Cc6ncc(-c7cnc8[nH]cc(C(=O)c9c(F)ccc(NS(=O)(=O)N%10CC[C@@H](F)C%10)c9F)c8c7)cn6)CC5)C4)ccc3C2=O)C(=O)N1 (some centres unmarked) [Compound 193] ?
Resp: 1 to 10 nM
